Each recorded value in this set is attributed to the Biogen ADME set (Fang et al. 2023).

The following compounds are listed with their measured intrinsic clearance, human liver microsomes values.

Please review the entries below; each comes with its answer.
Cn1ccnc1C1CCN(C(=O)COCc2nc3cc(F)ccc3[nH]2)CC1 ≤ 4.74 mL/min/kg
NC1(c2nc(-c3ccsc3)no2)CCCCC1 ≤ 4.74 mL/min/kg

# next compound below
Entry "CC(C)Cc1n[nH]c(-c2ccc(N3CCN(C)CC3)cc2)n1" — recorded intrinsic clearance, human liver microsomes = ≤ 4.74 mL/min/kg

----------
conditions: pH 6.8
Please map values of aqueous solubility to classes as shown: lower band (below 20 µg/mL), central band (20 µg/mL to below 50 µg/mL), upper band (50 µg/mL or more)

Recorded results for 10 compounds are shown here.
compound	assigned_category
Cc1nc2ccc(NC(=O)c3sc(-c4ccccn4)nc3C)cc2s1	lower band
CN(C)c1ccc(-c2ccc(COCc3cccs3)cc2)nn1	lower band
O=C1/C(=C2/CCCCCN2)C(Nc2ccccc2)=NN1c1ccccc1	lower band
Cn1cc(NC(=O)c2cn(Cc3ccccc3)nn2)cn1	central band
CCOc1ccc(S(=O)(=O)N(CC)CC(=O)Nc2ccc3c(c2)OCO3)cc1	lower band
O=C(Nc1cccc(-c2cnco2)c1)C1(c2cccc(F)c2)CCOCC1	central band
CN(C)C1=N[C@@H]2[C@@H](O)[C@H](O)[C@@H](CO)O[C@@H]2S1	central band
CO[C@H]1CC[C@H](C(=O)NC[C@H]2CC[C@H](c3nnc(-c4nccc5ccccc45)o3)CC2)CC1	central band
COc1ccc(Nc2nc(N)nc(CN3CCN(Cc4ccccc4)CC3)n2)cc1	upper band
CCCN(C(=O)c1c(CC)noc1C)C1Cc2ccccc2C1	central band

State the class of the compound shown: "N#CCc1ccc(NC(=O)C2CC2)cc1"
central band

Sort "Cc1nc2c(cnn2C(C)C)c(C)c1CCC(=O)O" into one of the categories.
central band

Which category does the recorded aqueous solubility put CCOC(C)C(=O)N1CCC(n2c(=O)[nH]c3ccccc32)CC1 (configuration not stated) in?
upper band

Hello team, could you let me know which band the following compound falls into: "CNCCN1CCC(OCc2ccccc2)CC1"
upper band

State the band of "N#CC1(CN2CCc3cc(-c4ccccc4)oc3C2)CC1"
central band

Which of the defined bands does the recorded aqueous solubility of "Cn1cc(NC(=O)[C@@H]2CCCCN2C(=O)OC(C)(C)C)cn1" sit within?
upper band

Pick a category. Item: "c1ccc(-c2ccc(CN3CCCCCCC3)cc2)cc1"
lower band

Any idea which band "CCONC(=O)c1cnn(-c2cccc(Cl)c2)c1" is in?
central band

Would you mind sorting "Cc1cccc(NC(=O)CN2C(=O)N(C)C3(CCCCC3)C2=O)c1C" into the appropriate category?
upper band

Lab note: which band did "CCc1cc2c(Nc3cnn(CC)c3)ncnc2s1" land in?
central band

Just checking, what class would you give "CCc1ccccc1NC(=O)Cn1nc(C)cc1C" here?
central band

Which bin, given its aqueous solubility, does "O=C1CCCN1c1ccc(NCc2ccccn2)nc1" occupy?
upper band

Band of "Cc1ccc(C2=NC3(CCN(Cc4ccc(F)cc4)CC3)NC2=O)cc1" ?
lower band

In plain terms, what class is "Fc1cccc(OC2CCN(Cc3nc4ccccc4[nH]3)CC2)c1" ?
upper band
